Where do these numbers come from? They come from ChEMBL document CHEMBL1671810.

What Kd was measured for each of the following?
Target: Human immunodeficiency virus type 1 reverse transcriptase (Human immunodeficiency virus 1, UniProt Q72547, L100I)
Assay: Binding affinity to HIV1 BH10 isolate reverse transcriptase L100I mutant expressed in Escherichia coli BL21(DE3)

**Query** For the molecule `C/C(=N\O)c1ccc2c(c1)CCC2` , what Kd is on record?
**Result** 200 µM

**Query** For the molecule `O=C1CCc2c(Br)cccc21` , what Kd is on record?
**Result** 40 µM

**Query** For the molecule `Cc1cc2c(cc1[N+](=O)[O-])OCO2` , what Kd is on record?
**Result** 40 µM

**Query** For the molecule `C=CCNc1scnc1S(=O)(=O)c1ccccc1` , what Kd is on record?
**Result** 90 µM

**Query** For the molecule `O=C1c2ccccc2CCc2ncccc21` , what Kd is on record?
**Result** 200 µM

**Query** For the molecule `O=C(c1ccncc1)c1ccc(Cl)cc1` , what Kd is on record?
**Result** 60 µM
